Cited source for all entries: patent US20160159862A1

target: α4β7 integrin on human cells (human, UniProt P13612 34-1032; P26010 20-798); assay: cell-based or functional assay
Bridge positions count the residues as written; N and C are the ends. Square brackets hold non-standard residues; d marks the D form. * marks the point of attachment. Phe(4-COOH) = N[C@@H](Cc1ccc(C(=O)O)cc1)C(=O)O; Phe(4-tBu) = CC(C)(C)c1ccc(C[C@H](N)C(=O)O)cc1; Oleoyl = CCCCCCCC/C=C\CCCCCCCC(=O)*; NMeR = CN[C@@H](CCCNC(=N)N)C(=O)O; β3hE = N[C@@H](CCC(=O)O)CC(=O)O; Pen = CC(C)(S)[C@H](N)C(=O)O
Answer each item with its documented α4β7 cell (Hu) IC50.

Ac-[Pen][NMeR]SDTL[Pen][Phe(4-COOH)][dE][dK]-NH2 (disulfide 1-7 (inferred); also: dimer via DIG) [SEQ ID NO 100] | ≤ 10 nM
Ac-C[NMeR]SDTL[Pen]W[dK]-NH2 (disulfide 1-7 (inferred); also: homodimer via PEG13 linker) [SEQ ID NO 36] | > 50 nM
Oleoyl-[Pen][NMeR]SDTL[Pen][Phe(4-tBu)][β3hE][dK]-NH2 (disulfide 1-7 (inferred)) [SEQ ID NO 180] | > 1000 nM
Ac-[Pen][NMeR]SDTL[Pen]W[dE][dK]-NH2 (disulfide 1-7 (inferred); also: homodimer linked by IDA, IDA-PEG4-Biotine) [SEQ ID NO 72] | > 25 nM

Moving on to the next binder.
Asked: Find the recorded α4β7 cell (Hu) IC50 belonging to Ac-XRSDXLXXE-NH2 (disulfide 1-7 (inferred); not fully specified (residues 1, 2, 5, 7, 8, 9); printed as Ac-Pen-(N-Me-R)-S-D-Cha-L-Pen-(2-Nal)-e-NH2, disulfide) [SEQ ID NO 158] and report it.
Given back: > 1000 nM
